Values compiled from paper PMC11019746.

# assayed.target: hY2R (Homo sapiens, UniProt P49146)
# Construct: host or cells: CHO
# Sequence (P49146 whole entry): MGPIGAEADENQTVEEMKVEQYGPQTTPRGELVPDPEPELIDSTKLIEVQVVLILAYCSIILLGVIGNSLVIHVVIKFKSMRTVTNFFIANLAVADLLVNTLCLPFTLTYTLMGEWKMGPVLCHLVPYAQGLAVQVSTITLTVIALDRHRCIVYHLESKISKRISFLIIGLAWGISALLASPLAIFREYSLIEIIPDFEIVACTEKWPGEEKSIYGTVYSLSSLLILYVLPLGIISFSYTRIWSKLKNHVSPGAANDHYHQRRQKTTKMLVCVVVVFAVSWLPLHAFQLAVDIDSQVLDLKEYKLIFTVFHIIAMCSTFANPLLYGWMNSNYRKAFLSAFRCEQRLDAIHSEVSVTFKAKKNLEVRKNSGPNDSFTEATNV
# method.summary: Y2R radioligand competition binding, whole CHO-hY2R cells, [3H]propionyl-pNPY
# settings: read-out: pKi ± SEM hY2R (converted)
measurement.kind: Ki

Problem: Given `Cc1cc(/C=C/C=C/c2ccc(N(C)C)cc2)cc(C)[n+]1CCCn1cc(CCCCNC(=O)N=C(N)NCCC[C@@H]2NC(=O)CCC(=O)NCCCCNC(=O)N=C(N)NCCC[C@@H](C(=O)N[C@@H](CC(C)C)C(=O)N[C@@H](CCCNC(=N)N)C(=O)N[C@@H](Cc3ccc(O)cc3)C(N)=O)NC(=O)[C@H](Cc3ccc(O)cc3)NC2=O)nn1` , state its recorded Ki.
Result: > 1000 nM

Problem: Given CC(C)C[C@H](NC(=O)[C@@H]1CCCNC(N)=NC(=O)NCCCCNC(=O)[C@H](NC(=O)CCCNC(=O)CCC#Cc2ccc3c(c2)C(C)(C)C2=C4C=C5C6=[N+](CCC5OC4CCN23)c2ccc(S(=O)(=O)[O-])cc2C6(C)C)CC(=O)N[C@@H](CCCNC(=N)N)C(=O)N[C@@H](Cc2ccc(O)cc2)C(=O)N1)C(=O)N[C@@H](CCCNC(=N)N)C(=O)N[C@@H](Cc1ccc(O)cc1)C(N)=O (some centres unmarked) , state its recorded Ki.
Result: > 1000 nM

Problem: Given `CC(C)C[C@H](NC(=O)[C@@H]1CCCNC(N)=NC(=O)NCCCCNC(=O)[C@H](NC(=O)CCCNC(=O)CCCCCN2/C(=C/C=C/C=C/C3=[N+](CCCCS(=O)(=O)[O-])c4ccccc4C3(C)C)C(C)(C)c3cc(S(=O)(=O)O)ccc32)CC(=O)N[C@@H](CCCNC(=N)N)C(=O)N[C@@H](Cc2ccc(O)cc2)C(=O)N1)C(=O)N[C@@H](CCCNC(=N)N)C(=O)N[C@@H](Cc1ccc(O)cc1)C(N)=O` , state its recorded Ki.
Result: > 1000 nM

Problem: Given `Cc1cc(/C=C/c2cc3c4c(c2)CCCN4CCC3)cc(C)[n+]1CCCC(=O)N[C@@H]1CC(=O)N[C@@H](CCCNC(=N)N)C(=O)N[C@@H](Cc2ccc(O)cc2)C(=O)N[C@H](C(=O)N[C@@H](CC(C)C)C(=O)N[C@@H](CCCNC(=N)N)C(=O)N[C@@H](Cc2ccc(O)cc2)C(N)=O)CCCNC(N)=NC(=O)NCCCCNC1=O` , state its recorded Ki.
Result: > 1000 nM

Problem: Given `C#CCCCCNC(=O)N=C(N)NCCC[C@@H]1NC(=O)CCC(=O)NCCCCNC(=O)N=C(N)NCCC[C@@H](C(=O)N[C@@H](CC(C)C)C(=O)N[C@@H](CCCNC(=N)N)C(=O)N[C@@H](Cc2ccc(O)cc2)C(N)=O)NC(=O)[C@H](Cc2ccc(O)cc2)NC1=O` , state its recorded Ki.
Result: > 10000 nM
